# Experimental Protocol: Stability test of analytes in rat prostate homogenate QC samples
# Type: in vitro ADME
# Settings: nominal puerarin 5.000, luteolin 10.000, kaempferol 200.000, pinocembrin 100.000, n = 3
Reported Metric: Stability, Mean ± S.D., 24 h at room temperature, high QC (μg·mL^−1/μg·g^−1)

Record Smiles: O=c1cc(-c2ccc(O)c(O)c2)oc2cc(O)cc(O)c12
Endpoint Value: 9.900
--
Record Smiles: O=c1c(-c2ccc(O)cc2)coc2c([C@@H]3O[C@H](CO)[C@@H](O)[C@H](O)[C@H]3O)c(O)ccc12
Endpoint Value: 4.940
--
Record Smiles: O=C1C[C@@H](c2ccccc2)Oc2cc(O)cc(O)c21
Endpoint Value: 102.000
--
Record Smiles: O=c1c(O)c(-c2ccc(O)cc2)oc2cc(O)cc(O)c12
Endpoint Value: 201.667
